tested on: PWR-1E (Non-Cancerous); assay: combination Emax (second highest fraction inhibited in the dose matrix, 72 h); higher = more inhibition; extreme values may be limits of the assay

compound	measured-target	combination Emax
COc1cccc(OCCCN)c1-c1cc(Nc2cnc(C#N)cn2)n[nH]1 [Prexasertib] + O=C(c1cc(Cc2n[nH]c(=O)c3ccccc23)ccc1F)N1CCN(C(=O)C2CC2)CC1 [Olaparib] (first compound max 1 µM, 7x7, partner max 10 µM)	PWR-1E (Non-Cancerous)	0.71
Cc1cc2ncnn2cc1Nc1ncc2c(n1)n(C1CCOCC1)c(=O)n2C [AZD7648] + O=C(c1cc(Cc2n[nH]c(=O)c3ccccc23)ccc1F)N1CCN(C(=O)C2CC2)CC1 [Olaparib] (first compound max 10 µM, 7x7, partner max 10 µM)	PWR-1E (Non-Cancerous)	0.28
NC1(C(=O)N[C@@H](CCO)c2ccc(Cl)cc2)CCN(c2ncnc3[nH]ccc23)CC1 [Capivasertib] + CCN(CCO)CCCOc1ccc2c(Nc3cc(CC(=O)Nc4cccc(F)c4)[nH]n3)ncnc2c1 [AZD2811] (first compound max 10 µM, 7x7, partner max 1 µM)	PWR-1E (Non-Cancerous)	0.713
NC1(C(=O)N[C@@H](CCO)c2ccc(Cl)cc2)CCN(c2ncnc3[nH]ccc23)CC1 [Capivasertib] + CC(C)n1c(=O)n(C)c2cnc3cc(F)c(-c4ccc(OCCCN5CCCCC5)nc4)cc3c21 [AZD1390] (first compound max 10 µM, 7x7, partner max 0.3 µM)	PWR-1E (Non-Cancerous)	0.4

* * *

Measured combination Emax, listed per entry.
test system: PANC-04-03 (Pancreatic Carcinoma); test: combination Emax (second highest fraction inhibited in the dose matrix, 72 h); higher = more inhibition; extreme values may be limits of the assay

compound	measured-target	combination Emax
Cn1cnc2c(F)c(Nc3ccc(Br)cc3Cl)c(C(=O)NOCCO)cc21 [Selumetinib] + CC(C)n1c(=O)n(C)c2cnc3cc(F)c(-c4ccc(OCCCN5CCCCC5)nc4)cc3c21 [AZD1390] (first compound max 10 µM, 7x7, partner max 0.3 µM)	PANC-04-03 (Pancreatic Carcinoma)	0.418
CN(CCO)CC[C@H](CSc1ccccc1)Nc1ccc(S(=O)(=O)NC(=O)c2ccc(N3CCC([C@@H](O)c4ccccc4-c4ccc(Cl)cc4)CC3)cc2)cc1S(=O)(=O)C(F)(F)F [AZD4320] + Cn1cnc2c(F)c(Nc3ccc(Br)cc3Cl)c(C(=O)NOCCO)cc21 [Selumetinib] (first compound max 1 µM, 7x7, partner max 3 µM)	PANC-04-03 (Pancreatic Carcinoma)	0.406

* * *

Measured Bliss excess, listed per entry.
tested on: TK10 (Kidney Carcinoma); assay: Bliss excess, mean over the matrix (fraction); higher = more synergy;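 further: after 72 h of two-drug dosing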

compound	measured-target	Bliss excess
Cc1cc2ncnn2cc1Nc1ncc2c(n1)n(C1CCOCC1)c(=O)n2C [AZD7648] + CCN(CCO)CCCOc1ccc2c(Nc3cc(CC(=O)Nc4cccc(F)c4)[nH]n3)ncnc2c1 [AZD2811] (first compound max 10 µM, 7x7, partner max 1 µM)	TK10 (Kidney Carcinoma)	0.0024
CC(=O)c1c(C)c2cnc(Nc3ccc(N4CCNCC4)cn3)nc2n(C2CCCC2)c1=O [Palbociclib] + Cc1c2c(nn1C)CSCc1cc(n(C)n1)CSc1cc(c3ccccc3c1)OCCCc1c(C(=O)O)n(C)c3c-2c(Cl)ccc13 [AZD5991] (first compound max 10 µM, 7x7, partner max 1 µM)	TK10 (Kidney Carcinoma)	-0.0228
Cc1c2c(nn1C)CSCc1cc(n(C)n1)CSc1cc(c3ccccc3c1)OCCCc1c(C(=O)O)n(C)c3c-2c(Cl)ccc13 [AZD5991] + C[C@@H](Nc1cc(F)cc(F)c1)c1cc(C(=O)N(C)C)cc2c(=O)cc(N3CCOCC3)oc12 [AZD8186] (first compound max 1 µM, 7x7, partner max 3 µM)	TK10 (Kidney Carcinoma)	-0.0736
CC1(C)CCC(CN2CCN(c3ccc(C(=O)NS(=O)(=O)c4ccc(NCC5CCOCC5)c([N+](=O)[O-])c4)c(Oc4cnc5[nH]ccc5c4)c3)CC2)=C(c2ccc(Cl)cc2)C1 [Venetoclax] + CN(C)CCCOc1ccc(-c2ccc3ncc4c(c3c2)n(C2CCOCC2)c(=O)n4C)cn1 [AZD0156] (first compound max 1 µM, 7x7, partner max 1 µM)	TK10 (Kidney Carcinoma)	-0.0782
